target_entity: Rap guanine nucleotide exchange factor 3 (Homo sapiens)
test_method_notes: Confirmatory qHTS for agonist of cAMP-regulated guanine nucleotide exchange factor 3 (EPAC1) (AID 1645881); note: nearly all actives have a fitted effect of over 75% in size;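 for activation: EPAC1 catalysed release of BODIPY-GDP from Rap1B seen as fluorescence loss; 100% = effect of cAMP agonist control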
condition_label: EPAC1 Rap1B BODIPY-GDP exchange fluorescence; series mostly up to 154 µM
Results filed as inconclusive are left out. Activity calls are given as the source filed them. Calls come from the whole dose curve; as a rule, active = well fitted activation curve with a large enough effect; inconclusive = small, poorly fitted or top-dose-only effect; inactive = no such curve, though single readings can be large or run the other way.
Permitted responses: y (active), n (inactive)

Prompt: # fetch the recorded call for CCC(=O)NC(c1ccc(OC)cc1)c1c(O)ccc2ccccc12 (stereo not drawn) here
Response: n

Prompt: Entry `CN(C)S(=O)(=O)N(CC(=O)NCCSc1ccc(Cl)cc1)c1ccccc1` please
Response: n

Prompt: Next: `CCc1nnc(NS(=O)(=O)c2ccc(NCc3cc(Cl)ccc3O)cc2)s1`
Response: n

Prompt: Repeat for the following compound: `COc1ccccc1CN(C)CC(=O)Nc1ccccc1-c1ccccc1`
Response: n

Prompt: What would you report for `CCn1c(C(=O)N2CCc3ccccc3C2)cc2sccc21` ?
Response: n

Prompt: Continue with `FC(F)(F)c1ccc(CSc2nccn2-c2ccccc2)cc1`
Response: n

Prompt: What do you get for `C/[N+]([O-])=C/c1c(OCc2ccccc2)ccc2ccccc12` ?
Response: n

Prompt: Lookup `COc1ncc2nc(-c3ccccc3)c(=O)n(Cc3cccs3)c2n1`
Response: n

Prompt: Repeat with COc1cc2c(cc1OC)C(c1ccc(Cl)cc1)N(c1ccc(C)c(F)c1)C(=O)C2 (stereo not drawn)
Response: n

Prompt: Field entry: CC1CCCN(C2(O)C(=O)Nc3c(C(F)(F)F)cccc32)C1 (stereo not drawn)
Response: n

Prompt: And CC1(C(=O)Nc2ccc3c(c2)OCO3)CCN1Cc1cccc2c1OCO2 (stereo not drawn) ?
Response: n

Prompt: Could you do the same for COc1cc2c(cc1OC)C1C(=O)c3ccc4c(c3OC1CO2)C=CC(C)(C)O4 (stereo not drawn) , please?
Response: n

Prompt: Then this compound: CCCC(CNC(C)=O)(C1=CCCCC1)c1ccccc1 (stereo not drawn)
Response: n

Prompt: Then this compound: `Cc1cc(N(CCO)Cc2ccccc2)n2nc(-c3ccc(C(C)(C)C)cc3)nc2n1`
Response: n

Prompt: Record: `OCCCNc1ncnc2oc(-c3ccccc3)c(-c3ccccc3)c12`
Response: n

Prompt: Again, but for `C/C(=N\NC(=O)CC#N)c1cc2ccc(O)cc2oc1=O`
Response: n

Prompt: How about `O=C(NNc1cc(N2CCOCC2)nc(N2CCOCC2)n1)c1ccc([N+](=O)[O-])cc1` ?
Response: n

Prompt: Follow-up entry: COc1cc2c(cc1NC(=O)C(C)Oc1ccc(Cl)cc1Cl)oc1ccccc12 (stereo not drawn)
Response: n

Prompt: Now this one: `O=C(COC(=O)c1c2c(nc3ccccc13)/C(=C\c1ccco1)CC2)NC1CCCC1`
Response: n

Prompt: Here is the next compound: COc1ccc(C2CC(=O)Oc3cc(OC)c(OC)c(OC)c32)cc1 (stereo not drawn)
Response: n

Prompt: Try the compound `O=C(O)c1ccccc1NS(=O)(=O)c1ccc(N/N=C/c2cccc(O)c2O)c([N+](=O)[O-])c1`
Response: n

Prompt: Next entry: COCCn1c(N)c(C(=O)NCC2CCCO2)c2nc3ccccc3nc21 (stereo not drawn)
Response: n

Prompt: Do the same for `Cc1cccc(NC(=O)Cn2c(O)c(N=NC(=O)c3ccccc3O)c3ccccc32)c1` please
Response: n

Prompt: And `CCCCN(CCCC)C1=Nc2ccccc2N/C1=C(/C#N)C(=O)OCC` ?
Response: n

Prompt: // query: `COc1ccc(-c2nc(C)ncc2-c2ccccc2)c(O)c1`
Response: n

Prompt: Then this compound: `Cc1noc(C)c1C(=O)N(CC(C)C)c1nc2ccccc2s1`
Response: n

Prompt: Also check `Cc1cc2ccccn2c1C(=O)c1ccc(Cl)c([N+](=O)[O-])c1`
Response: n

Prompt: Repeat for the following compound: CCC(C)Cn1c(COc2ccc(OC)cc2)nc2ccccc21 (stereo not drawn)
Response: n

Prompt: Please answer likewise for `O=C1C=C(NS(=O)(=O)c2ccccc2)C(=O)c2ccccc21`
Response: n

Prompt: What about this compound? `Cc1ccc(CNC(=O)c2cccc3c2C(=O)c2ccc(N4CCCCC4)cc2S3(=O)=O)cc1`
Response: y

Prompt: Now this one: COc1ccc(C2c3ccsc3CCN2C(C)=O)cc1 (stereo not drawn)
Response: n

Prompt: Same read-out for `Cc1ccc(SCCSc2ncccn2)cc1` ?
Response: n

Prompt: Could you do the same for `COc1ccc(-n2ccn(Cc3ccc(C)cc3)c(=O)c2=O)cc1OC` , please?
Response: n

Prompt: What would you report for `Cc1ccc(C(=O)c2cn(Cc3cccc(F)c3)c3nc(C)ccc3c2=O)cc1` ?
Response: n

Prompt: Queued: `CCOc1ccc2oc(C(=O)N(C)CC(=O)Nc3ccc(OCC)c(OCC)c3)c(C)c2c1`
Response: n

Prompt: Another compound to look at: COC(=O)C1CCN(c2nc3ccccc3nc2C(C#N)C(=O)NCCc2ccccc2)CC1 (stereo not drawn)
Response: n

Prompt: Same question for `O=C(/C=C/c1ccc(Br)o1)NCc1ccccc1` please.
Response: n

Prompt: How about CC1COc2ccccc2N1S(=O)(=O)c1ccc(Cl)cc1 (stereo not drawn) ?
Response: n

* * *

target_entity: Rap guanine nucleotide exchange factor 3 (Homo sapiens) (UniProt O95398)
Sequence (O95398 whole entry, looked up): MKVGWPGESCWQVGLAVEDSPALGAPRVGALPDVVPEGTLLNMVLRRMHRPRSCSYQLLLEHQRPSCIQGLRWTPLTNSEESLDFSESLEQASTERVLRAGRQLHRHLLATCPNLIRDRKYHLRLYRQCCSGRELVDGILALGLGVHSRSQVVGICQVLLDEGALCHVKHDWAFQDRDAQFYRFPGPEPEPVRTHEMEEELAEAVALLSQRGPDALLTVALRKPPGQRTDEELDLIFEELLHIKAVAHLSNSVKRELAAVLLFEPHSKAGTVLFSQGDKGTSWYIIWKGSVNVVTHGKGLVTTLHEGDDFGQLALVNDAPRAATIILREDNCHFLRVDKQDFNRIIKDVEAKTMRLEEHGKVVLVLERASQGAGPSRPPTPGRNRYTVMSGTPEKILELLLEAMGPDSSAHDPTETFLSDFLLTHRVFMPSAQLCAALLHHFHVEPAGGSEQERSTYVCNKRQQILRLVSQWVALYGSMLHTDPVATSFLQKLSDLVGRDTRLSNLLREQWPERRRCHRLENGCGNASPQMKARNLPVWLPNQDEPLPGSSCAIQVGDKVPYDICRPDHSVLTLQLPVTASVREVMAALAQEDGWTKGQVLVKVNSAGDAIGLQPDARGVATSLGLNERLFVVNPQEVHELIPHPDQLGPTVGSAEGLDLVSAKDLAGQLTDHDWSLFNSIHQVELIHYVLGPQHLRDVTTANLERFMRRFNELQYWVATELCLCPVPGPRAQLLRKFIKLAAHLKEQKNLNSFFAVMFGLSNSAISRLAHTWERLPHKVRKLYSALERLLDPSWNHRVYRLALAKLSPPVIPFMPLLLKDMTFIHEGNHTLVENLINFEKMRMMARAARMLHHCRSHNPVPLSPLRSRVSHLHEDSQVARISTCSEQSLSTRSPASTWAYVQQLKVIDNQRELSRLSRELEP
test_method_notes: Counterscreen qHTS for antagonist of cAMP-regulated guanine nucleotide exchange factor 3 (EPAC1) (AID 1645888);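 note: fluorescence loss as bound BODIPY-GDP is released from Rap1B; % of control where 0% means no effect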
condition_label: Rap1B-BODIPY-GDP nucleotide exchange, fluorescence; series mostly up to 154 µM
Inconclusive results are not listed. Calls of active or inactive are those of the source. Calls follow the shape of the dose curve; as a rule, active = well fitted inhibition curve with a large enough effect; inconclusive = small, poorly fitted or top-dose-only effect; inactive = no such curve, though single readings can be large or run the other way.
readout: activity change, negative = inhibition

molecule: O=C(CSc1nc2ccc(Cl)cc2[nH]1)N1CCN(C(=O)c2ccco2)CC1
activity change, negative = inhibition: inactive

molecule: COC(=O)C1=NN(c2ccc(C)cc2)C2(S1)SC(C(C)=O)=C(C)N2c1ccccc1 (centres undefined)
activity change, negative = inhibition: inactive

molecule: CC[C@]12c3[nH]c4cc(-c5ccco5)ccc4c3CCN1C(=O)[C@@H](CC(=O)NCCCOC)C[C@@H]2C(=O)N1CCN(C(=O)C2CC2)CC1
activity change, negative = inhibition: -21.4% [at 30.8 µM] (inactive)

molecule: COc1ccccc1/C=C1\SC(=S)N(CCC(=O)Nc2ccc(C(=O)O)c(O)c2)C1=O
activity change, negative = inhibition: -13.3% [at 30.8 µM] (inactive)

molecule: COCc1cc(C)nc(SCC(=O)c2ccc(O)c(O)c2)c1C#N
activity change, negative = inhibition: inactive

Prompt: Request the reported activity change, negative = inhibition associated with `Cc1cccc(C)c1-n1cccc1/C=C1\SC(=S)N(c2cccc(C(=O)O)c2)C1=O`
Response: inactive

Prompt: # repeat for `O=C(O)COc1ccc(/C=N/NC(=O)c2ccc(-c3csc(Nc4ccc(Cl)cc4)n3)cc2)cc1`
Response: inactive

Prompt: What do we get for Cc1ccccc1C1CC(=O)c2ccccc2C1C (centres undefined) ?
Response: inactive

Prompt: Another molecule to check: `COc1ccccc1C1CCN(c2ccc(CO)cc2[N+](=O)[O-])CC1`
Response: inactive

Prompt: Then what about the molecule `COc1cc(/C=C(\C#N)c2nc3ccc(C)cc3[nH]2)ccc1OCc1ccc(C)cc1` ?
Response: inactive

Prompt: Also, `CCCCCCc1cc2cc(C(=O)NC)c(=N)oc2cc1O` please.
Response: inactive

Prompt: Moving on to `Cc1cc(SCC(=O)N/N=C/c2ccc(O)c(O)c2)nc2ccccc12`
Response: -2.02% [at 30.8 µM] (inactive)

Prompt: Follow-up item: `O=C(c1cc(-c2ccc(Cl)cc2)nc2ccccc12)N1CCC1`
Response: inactive

Prompt: Proceed to CCC(CO)n1c(SCc2cc([N+](=O)[O-])cc3c2OCOC3)nc2ccccc2c1=O (centres undefined)
Response: 19.8% [at 30.8 µM] (inactive)

* * *

target_entity: Rap guanine nucleotide exchange factor 3 (Homo sapiens)
test_method_notes: Counterscreen qHTS for antagonist of cAMP-regulated guanine nucleotide exchange factor 3 (EPAC1) (AID 1645888);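 note: fluorescence loss as bound BODIPY-GDP is released from Rap1B; % of control where 0% means no effect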
condition_label: Rap1B-BODIPY-GDP nucleotide exchange, fluorescence; series mostly up to 154 µM
Results filed as inconclusive are left out. Calls of active or inactive are those of the source. The call rests on the fitted dose curve; in most records, active means well fitted inhibition curve with a large enough effect; inconclusive means small, poorly fitted or top-dose-only effect; inactive means no such curve, though single readings can be large or run the other way.
readout: activity change, negative = inhibition

molecule: CC1CC2(NC(=O)NC2=O)C(C)CN1C (stereo unspecified)
activity change, negative = inhibition: inactive
--
molecule: O=C(NCCc1ccccc1)c1ccc(Cn2c(SCc3cccc(F)c3)nc3cccnc32)cc1
activity change, negative = inhibition: inactive
--
molecule: Cc1oc2c(O)c(O)ccc2c(=O)c1-c1cnn(-c2ccccc2)c1
activity change, negative = inhibition: -26.8% [at 30.8 µM] (inactive)
--
molecule: O=S(=O)(NCCC1=CCCCC1)c1ccc(OC(F)(F)F)cc1
activity change, negative = inhibition: -5.33% [at 30.8 µM] (inactive)
--
molecule: Cc1cc(C(=O)c2ccc3ccccc3c2)c(C)o1
activity change, negative = inhibition: inactive
--
molecule: Cc1nc2c(C(=O)NCCc3ccccc3)c[nH]n2c(=O)c1Cc1ccc(F)cc1Cl
activity change, negative = inhibition: inactive

Prompt: So what's the measured activity change, negative = inhibition for this one? `O=c1c([N+](=O)[O-])cn(Cc2ccccc2)c(=O)n1Cc1ccccc1`
Response: -12.8% [at 30.8 µM] (inactive)

Prompt: # iterate: CCOC(=O)C1=CCN(S(=O)(=O)c2ccc(C)cc2)C1c1cccc(Cl)c1 (stereo unspecified)
Response: inactive

Prompt: Please do the same for `CCOc1ccc(S(=O)(=O)Nc2ccc(F)cc2)c(C)c1C` as well.
Response: inactive
